Assay: cytotoxicity to cultured tumor cell line U937
Assay type: cell-based, human
Conditions: human, u937 cells, 1 μg/ml; read-out: Suppression
ASSAY METRIC: cytotoxicity at 72 h (%)
Answers are plain numbers, in %.

Req: Need cytotoxicity at 72 h of CCCCCCCCCCCCCCCC[C@@H](O)[C@H](O)[C@@](N)(CO)C(=O)O , thanks.
Resp: 0.1

---

Test: cytotoxicity to cultured tumor cell line MOLT4
Assay type: cell-based, human
Settings: human, molt4 cells, 0.1 μg/ml; read-out: Suppression
ASSAY METRIC: cytotoxicity at 72 h
Give your result as the value with the unit written after it.

Consider the reported cytotoxicity at 72 h for these compounds:
COMPOUND: CCCCCCC(CCCCCC/C=C/C[C@@H](O)[C@H](O)[C@@](N)(CO)C(=O)O)=NO [Example 4]
OBSERVED VALUE: 11%
--
COMPOUND: CCCCCCCCCCCCCCCC[C@@H](O)[C@H](O)[C@@](N)(CO)C(=O)O [Example 2]
OBSERVED VALUE: 0.9%

Here is the next item to consider.
Req: Need cytotoxicity at 72 h of CCCCCCCCCCCCC/C=C/C[C@@H](O)[C@H](O)[C@@](N)(CO)C(=O)O [Example 5] , thanks.
Resp: 10.7%

---

Assay: cytotoxicity to cultured tumor cell line MOLT4
Assay type: cell-based, human
Details: human, molt4 cells, 1 μg/ml; read-out: Suppression
Provide the reported cytotoxicity at 72 h of each item.
One number for each entry, in %.

Consider the reported cytotoxicity at 72 h for these molecules:
MOLECULAR STRING: CCCCCCC(CCCCCC/C=C/C[C@@H](O)[C@H](O)[C@@](N)(CO)C(=O)O)=NO
cytotoxicity at 72 h [%]: 10.1
--
MOLECULAR STRING: CCCCCCCCCCCCCCCC[C@@H](O)[C@H](O)[C@@](N)(CO)C(=O)O
cytotoxicity at 72 h [%]: 11

Here is the next item to consider.
Req: Need cytotoxicity at 72 h of CCCCCCCCCCCCC/C=C/C[C@@H](O)[C@H](O)[C@@](N)(CO)C(=O)O , thanks.
Resp: 12.2

---

Tested on: IL-2 production in PHA-stimulated mouse spleen cells
Test: suppression of IL-2 production in PHA-stimulated mouse spleen cells
Type: cell-based
Conditions: 0.001 μg/ml
Provide the reported IL-2 activity of each item.
Numbers only, in U/ml.

COMPOUND: CCCCCCCCCCCCCCCC[C@@H](O)[C@H](O)[C@@](N)(CO)C(=O)O
VALUE UNITS: U/ml
IL-2 activity: 12.1
//
COMPOUND: CCCCCCC(O)C=CCCCCC=CCC(O)C(O)C(N)(CO)C(=O)O (centres unmarked)
VALUE UNITS: U/ml
IL-2 activity: 13.9
//
COMPOUND: CCCCCCCCCCCCC/C=C/C[C@@H](O)[C@H](O)[C@@](N)(CO)C(=O)O
VALUE UNITS: U/ml
IL-2 activity: 8.6

Please look at the items below and tell me IL-2 activity for each one, in order.
1. N[C@](CO)(C(=O)O)[C@@H](O)[C@H](O)CCO
2. CCCCCCC1(CCCCCC/C=C/C[C@@H](O)[C@H](O)[C@@](N)(CO)C(=O)O)SCCS1

Resp:
1. 12.6
2. 14.9
